# Tested On: ROCK2 (Homo sapiens (Human), UniProt O75116)
# Sequence (O75116 whole entry): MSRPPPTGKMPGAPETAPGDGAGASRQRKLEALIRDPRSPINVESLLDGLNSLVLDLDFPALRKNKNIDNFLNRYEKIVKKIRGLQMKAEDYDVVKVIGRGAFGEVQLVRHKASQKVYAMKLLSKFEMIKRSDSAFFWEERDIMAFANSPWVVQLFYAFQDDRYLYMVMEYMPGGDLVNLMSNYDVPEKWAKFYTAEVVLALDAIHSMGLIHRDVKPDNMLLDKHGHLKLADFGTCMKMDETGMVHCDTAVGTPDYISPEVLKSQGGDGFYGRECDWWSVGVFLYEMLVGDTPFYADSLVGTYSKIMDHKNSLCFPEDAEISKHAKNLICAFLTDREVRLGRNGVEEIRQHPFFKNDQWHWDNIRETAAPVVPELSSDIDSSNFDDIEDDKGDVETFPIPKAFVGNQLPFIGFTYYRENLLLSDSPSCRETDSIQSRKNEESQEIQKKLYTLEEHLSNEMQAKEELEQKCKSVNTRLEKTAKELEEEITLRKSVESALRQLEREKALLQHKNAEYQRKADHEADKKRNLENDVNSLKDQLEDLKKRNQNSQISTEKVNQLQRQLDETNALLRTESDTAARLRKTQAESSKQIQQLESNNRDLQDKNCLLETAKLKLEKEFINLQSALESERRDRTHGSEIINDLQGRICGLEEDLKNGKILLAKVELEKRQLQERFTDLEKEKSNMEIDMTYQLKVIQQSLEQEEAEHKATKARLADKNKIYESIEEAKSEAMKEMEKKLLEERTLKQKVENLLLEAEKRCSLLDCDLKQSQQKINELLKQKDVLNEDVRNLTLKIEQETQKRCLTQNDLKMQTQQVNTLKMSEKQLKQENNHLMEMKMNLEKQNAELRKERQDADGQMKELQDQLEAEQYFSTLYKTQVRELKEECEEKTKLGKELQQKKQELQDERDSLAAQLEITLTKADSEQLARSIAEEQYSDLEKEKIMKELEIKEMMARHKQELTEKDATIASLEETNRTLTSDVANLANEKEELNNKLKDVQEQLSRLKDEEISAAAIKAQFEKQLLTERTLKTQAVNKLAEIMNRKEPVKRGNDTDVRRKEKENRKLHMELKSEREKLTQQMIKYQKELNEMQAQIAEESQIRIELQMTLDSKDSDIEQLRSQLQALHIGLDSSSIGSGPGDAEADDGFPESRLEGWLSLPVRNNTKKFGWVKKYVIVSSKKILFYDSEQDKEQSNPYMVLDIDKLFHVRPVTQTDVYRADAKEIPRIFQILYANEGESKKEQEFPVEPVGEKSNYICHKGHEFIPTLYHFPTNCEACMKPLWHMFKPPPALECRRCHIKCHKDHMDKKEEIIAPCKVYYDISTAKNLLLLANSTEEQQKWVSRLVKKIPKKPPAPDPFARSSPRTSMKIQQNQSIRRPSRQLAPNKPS
# Assay Summary: ROCK2 kinase assay (IMAP fluorescence polarization)
# Format: biochemical
# Test Conditions: 1 μM ATP; read-out: ROCK2 Average Ki
Threshold check on Ki: strictly below 90 nM is Met; on or above 90 nM is Not met.

CN[C@H]1CCCN(c2ccnc3[nH]cc(-c4cc[nH]n4)c23)C1 [Example E83] ... Not met
N#Cc1c[nH]c2nccc(N3CCCC3c3ccccc3)c12 (stereo not shown) [Example E113] ... Not met
CN1CC[C@H]2CN(c3ccnc4[nH]cc(-c5cncnc5)c34)CC[C@H]21 [Example E200] ... Not met

### Prompt Please state whether Ki is below 90 nM for c1ncc(-c2c[nH]c3nccc(O[C@H]4CCCNC4)c23)cn1 [Example E222]
### Response Not met

### Prompt For this molecule, is Ki lower than 90 nM? CN[C@H]1CCCN(c2ccnc3[nH]cc(-c4cncnc4)c23)C1 [Example E57]
### Response Not met

### Prompt Just wondering, is Ki of Fc1cncc(-c2c[nH]c3nccc(N4CCCC5(CCCCN5)C4)c23)c1 (stereo not shown) [Example E171] below 90 nM?
### Response Met

### Prompt For this molecule, is Ki lower than 90 nM? c1ccc(-c2c[nH]c3nccc(N4CCC4)c23)nc1 [Example E25]
### Response Not met

---

# Tested On: MRCKβ (Homo sapiens (Human), UniProt Q9Y5S2)
# Assay Summary: MRCKβ kinase assay (IMAP fluorescence polarization)
# Format: biochemical
# Test Conditions: 1 μM ATP; read-out: MRCK-B Average Ki
Assignment: determine reported pKi for the given molecules.
Answers are plain numbers, as −log10 of the molar value.

c1csc(-c2c[nH]c3nccc(N4CC[C@]5(CCCN5)C4)c23)n1 ... 7.99
Cc1cnc(-c2c[nH]c3nccc(N4CCCC5(CCN5)C4)c23)s1 (centres unmarked) ... 8.03
c1ncc(-c2c[nH]c3nccc(NC4CCCCNC4)c23)cn1 (centres unmarked) ... 7.85
N#Cc1c[nH]c2nccc(N3CC[C@@H](N)C3)c12 ... 8.05

Consider now this further molecule.
### Prompt Return reported pKi; argument: CN(C1CC1)[C@H]1CCCN(c2ccnc3[nH]cc(-c4cncnc4)c23)C1 (stereo in doubt)
### Response 8.08

---

# Tested On: UniProt:O75116
# Assay Summary: ROCK2 kinase assay (IMAP fluorescence polarization)
# Type: biochemical
# Test Conditions: 1 μM ATP; read-out: ROCK2 Average Ki
Property Label: Ki (nM)
Give bare numbers, in nM.

Hi, could you look up Ki for each item in my list?
1. c1cc(-c2c[nH]c3nccc(N4CCCCC4)c23)[nH]n1
2. c1cc(-c2c[nH]c3nccc(N4CCCC5(CCCCN5)C4)c23)cnn1 (centres unmarked)
3. N#Cc1c[nH]c2nccc(N3CCNCC3)c12
4. c1ncc(-c2c[nH]c3nccc(N4CCCC(N5CCNCC5)C4)c23)cn1 (centres unmarked)

### Response
1. 15.4
2. 14.6
3. 23.8
4. 163

Provide reported Ki for each item, in the same order as listed.
1. CCN1CCCC[C@]12CCCN(c1ccnc3[nH]cc(-c4cncnc4)c13)C2
2. CN(C)C1CCCN(c2ccnc3[nH]cc(-c4cncnc4)c23)C1 (centres unmarked)
3. N[C@@H]1CCCN(c2ccnc3[nH]cc(-c4cncnc4)c23)C1
4. c1cnnc(-c2c[nH]c3nccc(N4CCCCC4)c23)c1

### Response
396
201
390
362

Provide Ki values for the following items, in order.
1. N#Cc1c[nH]c2nccc(N3CC[C@@H](N)C3)c12
2. FC1CCN([C@H]2CCCN(c3ccnc4[nH]cc(-c5cncnc5)c34)C2)C1 (some centres unmarked)
3. N#Cc1c[nH]c2nccc(N3CCCC3Cc3ccccc3)c12 (centres unmarked)
4. c1ccc(-c2c[nH]c3nccc(N4CCCCC4)c23)nc1
5. Fc1cncc(-c2c[nH]c3nccc(N4CCCCC4)c23)c1
6. c1ncc(-c2c[nH]c3nccc(N4CCC[C@H](N5CCCC5)C4)c23)cn1

### Response
1: 7; 2: 395; 3: 2820; 4: 699; 5: 374; 6: 603

List Ki for every entry below, keeping the order given.
1. N#Cc1c[nH]c2nccc(N3CCC[C@H]3COc3ccccc3)c12
2. Cc1cnc2[nH]cc(-c3cncnc3)c2c1N1CCCCC1 [Example E1]
3. CN[C@H]1CCCN(c2ccnc3[nH]cc(-c4ncccc4F)c23)C1
4. CN(C1CC1)[C@H]1CCCN(c2ccnc3[nH]cc(-c4cncnc4)c23)C1 (stereo in doubt)

### Response
1070
6500
756
228

// for each molecule in input: emit Ki
1. NCC1CCCN(c2ccnc3[nH]cc(-c4cncnc4)c23)C1 (centres unmarked)
2. c1ncc(-c2c[nH]c3nccc(NC4CCCNC4)c23)cn1 (centres unmarked)

### Response
1. 10.5
2. 165
